Value source: patent US12559474B2

target: SARS-CoV-2 3CL protease (Severe acute respiratory syndrome coronavirus 2, UniProt P0DTD1); experiment: biochemical; conditions: 50% SARS-CoV-2 3CL protease inhibitory concentration; RapidFire MS; read-out: IC50
measure: pIC50
Answers are plain numbers, as −log10 of the molar value.

As a guide, the following entries are already answered.
>  <compound>
Cc1cncc(-n2c(=O)nc(N3CC4CCC3CO4)n(Cc3cc(F)c(F)c(F)c3)c2=O)c1 (stereo not drawn)

>  <pIC50>
5.42

$$$$
>  <compound>
CCn1cc2cc(Nc3nc(=O)n(-c4cncc(Cl)c4)c(=O)n3Cc3cc(C#N)ccc3C)ccc2n1

>  <pIC50>
8.14

$$$$
>  <compound>
COc1ccc(Nc2nc(=O)n(-c3cncc4ccccc34)c(=O)n2Cc2cc(F)c(F)c(C#N)c2)cc1

>  <pIC50>
8.19

$$$$
>  <compound>
COc1ccc(Nc2nc(=O)n(Cc3ccc(C)[nH]c3=O)c(=O)n2Cc2cc(F)c(F)c(F)c2)cc1

>  <pIC50>
6.92

$$$$
>  <compound>
CCn1cc2cc(Nc3nc(=O)n(-c4cncc(Cl)c4)c(=O)n3Cc3ccc(F)c(C#N)c3)ccc2n1

>  <pIC50>
7.57

$$$$
>  <compound>
O=c1[nH]cc(Cl)cc1Cn1c(=O)nc(Nc2cc3c(cc2Cl)OCC3)n(Cc2cc(F)c(F)c(F)c2)c1=O

>  <pIC50>
8.12

$$$$
>  <compound>
Cc1cc(F)c(C#N)cc1Cn1c(Nc2ccc3nn(C)cc3c2)nc(=O)n(-c2cncc(Cl)c2)c1=O

>  <pIC50>
8.27

$$$$
>  <compound>
Cn1cc2cc(Nc3nc(=O)n(-c4cncc(Cl)c4)c(=O)n3Cc3cc(F)c(F)c(C#N)c3)ccc2n1

>  <pIC50>
8.04

$$$$

Need pIC50 for each of these compounds.
1. Cc1cncc(-n2c(=O)nc(Nc3ccc4nn(CC(F)F)cc4c3)n(Cc3cc(C#N)ccc3Cl)c2=O)c1
2. Cc1cncc(-n2c(=O)nc(Nc3cc4cn(C)nc4cc3Cl)n(Cc3cc(C#N)ccc3CF)c2=O)c1
3. COc1ccc(Nc2nc(=O)n(Cc3ccc[nH]c3=O)c(=O)n2CC2CCCCC2)cc1
4. O=c1[nH]cccc1Cn1c(=O)nc(NC23CC(Nc4ncc(F)cn4)(C2)C3)n(Cc2cc(F)c(F)c(F)c2)c1=O

[A]
1: 8.36; 2: 8.55; 3: 5.40; 4: 7.66

###

Hi there, I'd appreciate the recorded pIC50 for every entry that follows.
target: SARS-CoV-2 3CL protease (Severe acute respiratory syndrome coronavirus 2); experiment: biochemical; details: 50% SARS-CoV-2 3CL protease inhibitory concentration; RapidFire MS; read-out: IC50
One number for each entry, as −log10 of the molar value.

As a guide, the following entries are already answered.
>  <compound>
Cc1ccc(C#N)cc1Cn1c(Nc2ccc3nn(CC(F)(F)F)cc3c2)nc(=O)n(-c2cncc(Cl)c2)c1=O [II-0304]

>  <assayedSystem>
SARS-CoV-2 3CL protease (Severe acute respiratory syndrome coronavirus 2)

>  <pIC50>
8.35

$$$$
>  <compound>
COc1ccc(Nc2nc(=O)n(Cc3ccc[nH]c3=O)c(=O)n2Cc2ccc(Cl)s2)cc1 [Compound I-0321]

>  <assayedSystem>
SARS-CoV-2 3CL protease (Severe acute respiratory syndrome coronavirus 2)

>  <pIC50>
5.68

$$$$
>  <compound>
Cc1cncc(-n2c(=O)nc(Nc3cc4cn(CC(F)F)nc4cc3Cl)n(Cc3cc(F)c(F)cc3F)c2=O)c1 [II-0574]

>  <assayedSystem>
SARS-CoV-2 3CL protease (Severe acute respiratory syndrome coronavirus 2)

>  <pIC50>
8.04

$$$$
>  <compound>
COc1ccc(Nc2nc(=O)n(-c3nncc4cnn(C)c34)c(=O)n2Cc2cc(F)c(F)c(F)c2)cc1 [II-0401]

>  <assayedSystem>
SARS-CoV-2 3CL protease (Severe acute respiratory syndrome coronavirus 2)

>  <pIC50>
6.54

$$$$
>  <compound>
O=c1[nH]cccc1Cn1c(=O)nc(N2Cc3ccccc3C2)n(Cc2cc(F)c(F)c(F)c2)c1=O [Compound I-0180]

>  <assayedSystem>
SARS-CoV-2 3CL protease (Severe acute respiratory syndrome coronavirus 2)

>  <pIC50>
7.24

$$$$
>  <compound>
Cn1cnc(Cn2c(=O)nc(Nc3cc4cn(CC(F)F)nc4cc3Cl)n(Cc3cc(Cl)c(F)cc3F)c2=O)n1 [II-0569]

>  <assayedSystem>
SARS-CoV-2 3CL protease (Severe acute respiratory syndrome coronavirus 2)

>  <pIC50>
8.38

$$$$
>  <compound>
CNc1nc2cc(F)c(Nc3nc(=O)n(-c4cncc(C)c4)c(=O)n3Cc3cc(C#N)ccc3Cl)cc2s1 [II-0292]

>  <assayedSystem>
SARS-CoV-2 3CL protease (Severe acute respiratory syndrome coronavirus 2)

>  <pIC50>
8.41

$$$$
>  <compound>
Cc1cncc(-n2c(=O)nc(Nc3cc4cn(C)nc4cc3Cl)n(Cc3ccc(F)c(C#N)c3)c2=O)c1 [Compound I-0383]

>  <assayedSystem>
SARS-CoV-2 3CL protease (Severe acute respiratory syndrome coronavirus 2)

>  <pIC50>
8.47

$$$$
>  <compound>
COC(=O)c1cncc(-n2c(=O)nc(Nc3cc4cn(C)nc4cc3Cl)n(Cc3cc(F)c(F)c(F)c3)c2=O)c1 [II-0275]

>  <assayedSystem>
SARS-CoV-2 3CL protease (Severe acute respiratory syndrome coronavirus 2)

>  <pIC50>
6.44

$$$$
>  <compound>
COc1ccc(Nc2nc(=O)n(Cc3cscn3)c(=O)n2Cc2cc(F)c(F)c(F)c2)cc1 [II-0258]

>  <assayedSystem>
SARS-CoV-2 3CL protease (Severe acute respiratory syndrome coronavirus 2)

>  <pIC50>
6.02

$$$$

Need pIC50 for each of these compounds.
1. COC(=O)Nc1nc2cc(Cl)c(Nc3nc(=O)n(-c4cncc(C)c4)c(=O)n3Cc3ccc(F)c(C#N)c3)cc2s1 [II-0074]
2. Cc1cncc(-n2c(=O)nc(Nc3ccc4nn(C)cc4c3)n(Cc3cc(C#N)ccc3Cl)c2=O)c1 [II-0422]
3. Cc1nc2cc(Cl)c(Nc3nc(=O)n(Cc4cc5ccsc5[nH]c4=O)c(=O)n3Cc3cc(F)c(F)c(F)c3)cc2n1C [Compound I-0390]
4. CCn1cc2cc(Nc3nc(=O)n(-c4cncc(C)c4)c(=O)n3Cc3cc(C#N)ccc3C)c(Cl)cc2n1 [II-0493]
5. O=c1[nH]cccc1Cn1c(=O)nc(NC2CCS(=O)(=O)CC2)n(Cc2cc(F)c(F)c(F)c2)c1=O [Compound I-0038]
6. Cn1cc2cc(Nc3nc(=O)n(-c4cncc(Cl)c4)c(=O)n3Cc3ccc(F)c(C#N)c3)c(Cl)cc2n1 [II-0120]
7. O=c1[nH]cccc1Cn1c(=O)nc(N2CC3(CCC3)C2)n(Cc2cc(F)c(F)c(F)c2)c1=O [II-0226]

[A]
8.44
8.19
8.40
8.89
5.89
8.05
6.89

Need pIC50 for each of these compounds.
1. Cc1cncc(-n2c(=O)nc(Nc3ccc4nn(CC(F)(F)F)cc4c3)n(Cc3cc(C#N)ccc3C)c2=O)c1 [II-0299]
2. Cn1cnc(Cn2c(=O)nc(Nc3cc4c(cc3Cl)OCC4)n(Cc3cc(F)c(F)c(F)c3)c2=O)n1 [Compound I-0482]
3. Cc1cncc(-n2c(=O)nc(Nc3ccc4nn(CC(F)F)cc4c3)n(Cc3cc(C#N)ccc3C)c2=O)c1 [II-0521]

[A]
[8.48, 7.82, 8.47]

Need pIC50 for each of these compounds.
1. Cc1cncc(-n2c(=O)nc(Nc3ccc4nn(CC(F)(F)F)cc4c3)n(Cc3ccc(F)c(C#N)c3)c2=O)c1 [II-0567]
2. Cn1cc2cc(Nc3nc(=O)n(-c4cncc(Cl)c4)c(=O)n3Cc3cc(C#N)ccc3Cl)ccc2n1 [II-0523]
3. CNc1nc2cc(Cl)c(Nc3nc(=O)n(-c4cncc(C)c4)c(=O)n3Cc3cc(C#N)ccc3Cl)cc2o1 [II-0545]
4. O=c1[nH]cccc1Cn1c(=O)nc(Nc2cc3c(cc2Cl)OCC3)n(Cc2cc(F)c(F)c(F)c2)c1=O [Compound I-0239]

[A]
1. 8.06
2. 7.96
3. 8.07
4. 8.41

Need pIC50 for each of these compounds.
1. Cc1cncc(-n2c(=O)nc(NC3CCC3)n(Cc3cc(F)c(F)c(F)c3)c2=O)c1 [II-0227]
2. Cn1cc2cc(Nc3nc(=O)n(-c4cncc(C(F)(F)F)c4)c(=O)n3Cc3cc(F)c(F)c(F)c3)c(Cl)cc2n1 [II-0273]

[A]
1: 6.20; 2: 6.44
